Every entry's value here was drawn from patent US20260132197A1.

targetDesc: T1, wild type human CD47 (Acro Biosystems, cat. no. CD7-H5227) (human, UniProt Q08722 19-139)
T1 construct: Bought protein used as SPR analyte; also called Human CD47 wt; wild-type CD47
T1 sequence (Q08722 19-139 limits assumed): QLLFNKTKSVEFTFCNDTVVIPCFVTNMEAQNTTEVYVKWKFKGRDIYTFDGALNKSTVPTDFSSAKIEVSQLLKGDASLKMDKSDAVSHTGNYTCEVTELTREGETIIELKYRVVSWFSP
testName: SPR, IgG captured, CD47 in flow; exp 4;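 also: biacore T200 SPR using IgG from transfected HEK293 supernatants against wild-type human CD47 or its C33G mutein, rates fitted to association and dissociation curves, KD estimated from them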
reportedMetric: kon (M⁻¹ s⁻¹)
Response body: numeric value in M⁻¹ s⁻¹, unit text excluded.

Query :: So what does the record say about kon for 108VH5.M20 / 108VL1.M5 (antibody, human IgG4 S228P, kappa, V domains shown, Full-length IgG4 (S228P), kappa; also called VH5.M20 VL1.M5) VH: EVQLVQSGAEVKKPGASVKVSCKASGYTFTHHWMHWVRQAPGQGLEWMGMIDASDAETRYAQKFQGRVTMTRDTSTSTVYMELSSLRSEDTAVYYCARLGRYYFDYWGQGTLVTVSS VL: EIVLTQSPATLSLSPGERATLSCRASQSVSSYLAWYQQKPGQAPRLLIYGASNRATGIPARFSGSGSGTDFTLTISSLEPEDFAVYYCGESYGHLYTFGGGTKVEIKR ?
Result :: 710000

Query :: So what does the record say about kon for 108VH5.M23 / 108VL1.M5 (antibody, human IgG4 S228P, kappa, V domains shown, Full-length IgG4 (S228P), kappa; also called VH5.M23 VL1.M5) VH: EVQLVQSGAEVKKPGASVKVSCKASGYTFTHHWMHWVRQAPGQGLEWMGMIDASDKETRYAQKFQGRVTMTRDTSTSTVYMELSSLRSEDTAVYYCARLGRYYFDYWGQGTLVTVSS VL: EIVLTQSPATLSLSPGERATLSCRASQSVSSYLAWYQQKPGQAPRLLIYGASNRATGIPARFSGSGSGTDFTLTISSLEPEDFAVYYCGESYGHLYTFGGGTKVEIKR ?
Result :: 440000

Query :: So what does the record say about kon for 108VH4.M4-VL1.M1 (antibody, V domains shown, also called original humanized 108C10A6 antibody) VH: EVQLVQSGAEVKKPGSSVKVSCKASGYSFTHHWIHWVRQAPGQGLEWMGMIDASDSETRLSQKFKDRVTITADKSTSTAYMELSSLRSEDTAVYYCARLGRYYFDYWGQGTTVTVSS VL: EIVLTQSPATLSLSPGERATLSCRASENVGTYISWYQQKPGQAPRLLIYGASNRYTGIPARFSGSGSGTDFTLTISSLEPEDFAVYYCGESYGHLYTFGGGTKVEIK ?
Result :: 1.1e+06

Query :: So what does the record say about kon for 108VH5.M27 / 108VL1.M5 (antibody, human IgG4 S228P, kappa, V domains shown, Full-length IgG4 (S228P), kappa; also called VH5.M27 VL1.M5) VH: EVQLVQSGAEVKKPGASVKVSCKASGYTFTHHWMHWVRQAPGQGLEWMGMIDASDYETRYAQKFQGRVTMTRDTSTSTVYMELSSLRSEDTAVYYCARLGRYYFDYWGQGTLVTVSS VL: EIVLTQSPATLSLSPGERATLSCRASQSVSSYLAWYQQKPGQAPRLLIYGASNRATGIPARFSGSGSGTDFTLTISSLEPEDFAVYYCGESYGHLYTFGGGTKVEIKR ?
Result :: 490000

Query :: So what does the record say about kon for 108VH5.M21 / 108VL1.M5 (antibody, human IgG4 S228P, kappa, V domains shown, Full-length IgG4 (S228P), kappa; also called VH5.M21 VL1.M5) VH: EVQLVQSGAEVKKPGASVKVSCKASGYTFTHHWMHWVRQAPGQGLEWMGMIDASDFETRYAQKFQGRVTMTRDTSTSTVYMELSSLRSEDTAVYYCARLGRYYFDYWGQGTLVTVSS VL: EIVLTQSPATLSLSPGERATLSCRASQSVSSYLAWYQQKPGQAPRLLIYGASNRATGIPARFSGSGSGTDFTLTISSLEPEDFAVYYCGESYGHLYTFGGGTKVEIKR ?
Result :: 490000
